Sourced from patent US20240002500A1

Biological target: T1, full-length human TIGIT on cells (human, UniProt Q495A1 22-244)
T1 construct: whole, on cells; The same protein is used for CHO-hTIGIT, PBMC and NK92-hTIGIT; the cells are named under assay; also called CHO-hTIGIT; hTIGIT
T1 sequence (looked up): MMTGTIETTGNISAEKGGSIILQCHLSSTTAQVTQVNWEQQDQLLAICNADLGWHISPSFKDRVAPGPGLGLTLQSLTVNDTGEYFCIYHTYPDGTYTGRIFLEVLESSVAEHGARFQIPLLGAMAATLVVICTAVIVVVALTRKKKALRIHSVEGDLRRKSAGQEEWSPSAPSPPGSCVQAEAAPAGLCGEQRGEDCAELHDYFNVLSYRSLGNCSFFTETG
Test: FACS titration on CHO-hTIGIT cells, PE goat anti-mouse IgG
Provide the recorded pEC50 for the entries that follow.
One number for each entry, as −log10 of the molar value.

Solved entries (count: 3):
[
  {
    "binder": "3Tigit-29 mouse monoclonal antibody (antibody, V domains shown, Mouse monoclonal antibody from hybridoma) VH: EVQLQQSGPELVKPGASVKISCKASGYTFTDYNMHWVKQSLGKSLEWIGYVNSFNGNTGYSQKFKSKVTLTVDRSSRTAYMDLRSLTSEDSAVFYCARSSRGGFAYWGQGTLVTVSA VL: QIVLTQSPAIMSASPGEKVTMTCSASSSVSYMHWYQQKSGTSPKRWIYDTSKLASGVPARFSGSVSGTSYSLTISSMEAEDAATYYCQQWSSNSLTFGAGTKLELKR",
    "reported": 9.41
  },
  {
    "binder": "Tigit-5 mouse monoclonal antibody (antibody, V domains shown, Mouse monoclonal antibody from hybridoma) VH: QVQLQQPGAELVRPGASVKLSCKASGYSFTSYWMNWVKQRPGQGLEWIGMIRPSDSETRLNQMFKDKATLTVDKSSSTAYMQLSSPTSDDSAVYYCAGIHDYGHGAYWGQGTLVTVSA VL: DIQMIQSPASLSVSVGETVTITCRASENIYSNLAWYQQKQGKSPQLLVYAASHLPDGVPSRFSGSGSGTQYSLKINSLQSEDFGSYYCQHFWGTPRTFGGGTKLEIKR",
    "reported": 9.71
  },
  {
    "binder": "14Tigit-1-1 mouse monoclonal antibody (antibody, V domains shown, Mouse monoclonal antibody from hybridoma) VH: DVQLQESGPGLVKPSQSLSLTCTVTGYSITSDYAWNWIRQFPGNKLEWMGYISYSGSTRSNPSLKSRISITRDTSKNQFFLQLNSMTAEDTATYYCGGWEVRNYYAMDYWGQGTSVTVSS VL: DIVMTQSHKFMSTSVGDRVSITCKASQHVSTAVAWYQQKPGQSPKLLIYSASYRYTGVPDRFTGSGSGTDFTFTISSVQAEDLAVYYCQQHYNTPWTFGGGTKLEIKR",
    "reported": 9.35
  }
]

Read the next record carefully.
stdin: # input binder: 3Tigit-12 mouse monoclonal antibody (antibody, V domains shown, Mouse monoclonal antibody from hybridoma) VH: QVQLQQSGAELVRPGTSVKMSCKAAGYTFTNYWIGWVKQRPGHGLEWIGDIYPGGGYTNYDEKFKGKATLTADTSSRTAYMQLSSLTSEDSAIYHCVNGGYGSTYGYFDVWGAGTTVTVSS VL: DIVMSQSPSSLPVSVGEKVTMSCKSSQSLLFSSDQKNYLAWYQQKPGQSPKLLIYWASTRESGVPDRLTGSGSGTDFTLTISSVKAEDLAVYYCQQYHKYPFTFGGGTKLEIKR ; wanted: its pEC50
stdout: 9.33
